test: chemical genetic growth profiling, strain panel (AID 1159580);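 further: tested at 20 µM; growth read once vehicle control cultures reached saturation at 30 °C; 1 = growth at the plate median or of vehicle wells; lower values mean less growth of the strain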; conditions: S. cerevisiae deletion strains, growth OD, locus YDR502C, strain sam2, hits give low values
Out of some 5,500 compounds screened, about 2,000 (36%) were called active. Another 18% or so got no clear call; they are omitted. The list shows a part of the results.
measurement_name: normalized growth

[
  {
    "compound": "O=C(O)P(=O)(O)O",
    "val": "0.957 (inactive)"
  },
  {
    "compound": "COc1ccccc1-c1cc(=O)c2cccc(OC)c2o1",
    "val": "0.906 (active)"
  },
  {
    "compound": "COc1c(C(=O)O)ccc2c1CCC(C)(C)O2",
    "val": "0.981 (inactive)"
  },
  {
    "compound": "Cc1ccc(C(C)C)cc2c(C)ccc1-2",
    "val": "1 (inactive)"
  },
  {
    "compound": "c1ccc2[nH]c(-c3cscn3)nc2c1",
    "val": "0.971 (inactive)"
  },
  {
    "compound": "O=c1cccc2n1C[C@H]1CNCC2C1",
    "val": "1 (inactive)"
  },
  {
    "compound": "CC1(C)CC2C1CCC1(C)OC1CCC2(C)O (stereo not drawn)",
    "val": "1.06 (inactive)"
  },
  {
    "compound": "CCOC(=O)C1=C[C@]2(CC)CCCN3CCc4c(n1c1ccccc41)[C@@H]32",
    "val": "0.947 (inactive)"
  },
  {
    "compound": "O=C(O)CCCCCCCCCCCCC1C=CCC1 (stereo not drawn)",
    "val": "0.917 (active)"
  },
  {
    "compound": "CCOC(N)=O",
    "val": "1 (inactive)"
  },
  {
    "compound": "CC1=C(/C=C/C(C)=C/C=C/C(C)=C/CO)C(C)(C)CCC1",
    "val": "1 (inactive)"
  },
  {
    "compound": "CC[C@]12CCCN3CCc4c(n(c5ccccc45)[C@](O)(C(=O)OC)C1)[C@@H]32",
    "val": "0.978 (inactive)"
  },
  {
    "compound": "CCCSP(=O)(OCC)SCCC",
    "val": "0.996 (inactive)"
  },
  {
    "compound": "CC12CCC3C(CC=C4CC(O)CCC43C)C1CCC2=O (stereo not drawn)",
    "val": "0.879 (active)"
  },
  {
    "compound": "CCC(CCC(C)C1CCC2C3CC=C4C[C@@H](OC(C)=O)CC[C@]4(C)C3CC[C@]12C)C(C)C (stereo partly drawn)",
    "val": "0.968 (inactive)"
  },
  {
    "compound": "NCCCCN=C(N)N",
    "val": "0.987 (inactive)"
  },
  {
    "compound": "COc1c(C2COc3cc4c(cc3C2=O)CC(O)C(C)(C)O4)ccc2c1CCC(C)(C)O2 (stereo not drawn)",
    "val": "1.04 (inactive)"
  },
  {
    "compound": "CCCNC(C)C(=O)Nc1ccccc1C (stereo not drawn)",
    "val": "0.991 (inactive)"
  },
  {
    "compound": "CC[C@]12CCCN3CCc4c(n(c5ccccc45)C(=O)C1)[C@@H]32",
    "val": "0.984 (inactive)"
  },
  {
    "compound": "CCOC(=O)CCCCCCCCCCCCC1C=CCC1 (stereo not drawn)",
    "val": "0.0641 (active)"
  },
  {
    "compound": "CN=C1CN(O)C(c2ccccc2)=c2cc(Cl)ccc2=N1",
    "val": "0.971 (inactive)"
  },
  {
    "compound": "CC12CCCC(O)(C1)C1CC(C)(C)C1CC2 (stereo not drawn)",
    "val": "1.05 (inactive)"
  },
  {
    "compound": "CC1(C)CC2C1CCC1(C)OC2(C)CCC1O (stereo not drawn)",
    "val": "1.03 (inactive)"
  }
]
